experimentDescription: Inhibition of Pseudomonas aeruginosa beta-lactamase PDC3 expressed in Escherichia coli BL21 (DE3) RP CodonPlus incubated for 5 mins before nitrocefin substrate addition by spectrophotometry
readoutLabel: log10 of Ki (log10 of the value in nM)
Recorded Ki (log10, nM)

Please review the following examples before continuing.
>>> df
                                 smilescode  resultnumber
0                      O=C(Cc1cccs1)NCB(O)O          2.61
1       O=C(Cc1cccs1)N[C@@H](Cn1ccnn1)B(O)O          2.21
2  O=C(Cc1cccs1)N[C@@H](Cn1cc(-c2cccc(C(=O)O)c2)nn1)B(O)O          0.90

Which log10 of Ki is listed for `O=C(Cc1cccs1)N[C@@H](Cn1cc(C(=O)O)nn1)B(O)O` ?
0.60

Which log10 of Ki is listed for `O=C(Cc1cccs1)N[C@@H](Cc1cccc(C(=O)O)c1)B(O)O` ?
1.11

Origin of values: ChEMBL document CHEMBL3585244
